These entries and their values trace back to ChEMBL document CHEMBL1143708.

experiment: Cytotoxicity against E6SM cells assessed as alteration in cell morphology; format: cell-based; settings: human
readout_kind: MCC

- O=c1[nH]c(=O)n([C@H]2C[C@H](O)[C@@H](CO)O2)cc1C#CI: ≥ 100 µg/mL
- C#Cc1cn([C@H]2C[C@H](O)[C@@H](CO)O2)c(=O)[nH]c1=O: > 400 µg/mL
- Nc1nc2c(ncn2COCCO)c(=O)[nH]1 [ACYCLOVIR]: > 400 µg/mL
- C[Si](C)(C)C#Cc1cn([C@H]2C[C@H](O)[C@@H](CO)O2)c(=O)[nH]c1=O: > 400 µg/mL
- O=c1[nH]c(=O)n([C@H]2C[C@H](O)[C@@H](CO)O2)cc1/C=C/Br [BRIVUDINE]: ≥ 400 µg/mL
- Nc1nc2c(ncn2COC(CO)CO)c(=O)[nH]1 [GANCICLOVIR]: > 100 µg/mL
